All figures here come from paper PMC9120017.

targetOrSystem: mouse TMEM16A mutant T539A (Mus musculus, UniProt Q8BHY3, T539A)
Construct: expressed in transfected cells; host or cells: HEK293T
methodSummary: Inside-out patch recording of 1PBC block, mutant T539A
Assay type: cell-based
condition: -100 mV; 2 µM Ca2+
Description: HEK293T cells (ATCC CRL-1573) were maintained in Dulbecco’s modified Eagle’s medium (DMEM; Sigma-Aldrich) supplemented with 10 U ml^−1 penicillin, 0.1 mg ml^−1 streptomycin (Sigma-Aldrich), 2 mM L-glutamine (Sigma-Aldrich), and 10% FBS (Sigma-Aldrich) in a humidified atmosphere containing 5% CO2 at 37 °C. […]
observedProperty: IC50 (µM)
Numbers only, in µM.

Record N#Cc1c(C(F)(F)F)cc(O)n2c1nc1ccccc12 [1PBC] ; system mouse TMEM16A mutant T539A (Mus musculus, UniProt Q8BHY3, T539A); IC50 = 34.3

====

targetOrSystem: mouse TMEM16A mutant I516A (Mus musculus, UniProt Q8BHY3, I516A)
Construct: expressed in transfected cells; host or cells: HEK293T
Sequence (Q8BHY3 1-960 I516A): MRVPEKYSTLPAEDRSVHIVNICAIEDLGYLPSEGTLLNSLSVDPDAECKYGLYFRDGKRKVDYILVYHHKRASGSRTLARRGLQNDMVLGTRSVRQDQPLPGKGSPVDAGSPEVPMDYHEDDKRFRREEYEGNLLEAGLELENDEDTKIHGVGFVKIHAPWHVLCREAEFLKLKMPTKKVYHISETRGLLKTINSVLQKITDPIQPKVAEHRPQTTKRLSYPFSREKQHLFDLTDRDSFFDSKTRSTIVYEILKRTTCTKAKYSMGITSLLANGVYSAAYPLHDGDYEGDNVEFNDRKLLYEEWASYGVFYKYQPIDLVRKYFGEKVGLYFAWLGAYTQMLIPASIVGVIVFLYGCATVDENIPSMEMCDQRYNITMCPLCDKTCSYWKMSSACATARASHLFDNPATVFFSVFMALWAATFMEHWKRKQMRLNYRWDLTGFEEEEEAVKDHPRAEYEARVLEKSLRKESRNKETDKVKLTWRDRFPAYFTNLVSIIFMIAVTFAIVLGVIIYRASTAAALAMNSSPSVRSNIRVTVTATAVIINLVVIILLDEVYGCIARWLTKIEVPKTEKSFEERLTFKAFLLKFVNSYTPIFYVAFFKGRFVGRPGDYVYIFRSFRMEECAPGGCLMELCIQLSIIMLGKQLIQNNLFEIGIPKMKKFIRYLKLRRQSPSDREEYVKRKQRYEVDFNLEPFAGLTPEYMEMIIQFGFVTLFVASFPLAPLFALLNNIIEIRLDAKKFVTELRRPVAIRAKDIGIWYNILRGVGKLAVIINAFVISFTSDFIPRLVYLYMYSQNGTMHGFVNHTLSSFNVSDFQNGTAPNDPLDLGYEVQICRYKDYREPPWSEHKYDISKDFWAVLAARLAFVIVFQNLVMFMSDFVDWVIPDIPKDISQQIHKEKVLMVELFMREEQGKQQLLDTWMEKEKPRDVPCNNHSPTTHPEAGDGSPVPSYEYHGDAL
methodSummary: Inside-out patch recording of 1PBC block, mutant I516A
Format: cell-based
condition: 0 mV; 2 µM Ca2+
observedProperty: IC50 (µM)
Answers are plain numbers, in µM.

Noted for N#Cc1c(C(F)(F)F)cc(O)n2c1nc1ccccc12 : its IC50 reads 5.69

====

targetOrSystem: mouse TMEM16A mutant V599A (Mus musculus, UniProt Q8BHY3, V599A)
Construct: expressed in transfected cells; host or cells: HEK293T
methodSummary: Inside-out patch recording of 1PBC block, mutant V599A
Assay type: cell-based
condition: V599A; V 100 mV
observedProperty: IC50 (µM)
Answers are plain numbers, in µM.

The recorded IC50 for N#Cc1c(C(F)(F)F)cc(O)n2c1nc1ccccc12 [1PBC] is 45

====

targetOrSystem: mouse TMEM16A mutant I512A (Mus musculus, UniProt Q8BHY3, I512A)
Construct: expressed in transfected cells; host or cells: HEK293T
methodSummary: Inside-out patch recording of 1PBC block, mutant I512A
Type: cell-based
condition: -40 mV; 2 µM Ca2+
observedProperty: pIC50
Numbers only, as −log10 of the molar value.

Tested system mouse TMEM16A mutant I512A (Mus musculus, UniProt Q8BHY3, I512A); pIC50 recorded for N#Cc1c(C(F)(F)F)cc(O)n2c1nc1ccccc12 was 4.37

====

targetOrSystem: mouse TMEM16A mutant I516A (Mus musculus, UniProt Q8BHY3, I516A)
Construct: expressed in transfected cells; host or cells: HEK293T
methodSummary: Inside-out patch recording of 1PBC block, mutant I516A
Format: cell-based
condition: -60 mV; 2 µM Ca2+
observedProperty: pIC50
Give bare numbers, as −log10 of the molar value.

Measured pIC50 of N#Cc1c(C(F)(F)F)cc(O)n2c1nc1ccccc12 : 5.02

====

targetOrSystem: mouse TMEM16A mutant K603Q (Mus musculus, UniProt Q8BHY3, K603Q)
Construct: expressed in transfected cells; host or cells: HEK293T
Sequence (Q8BHY3 1-960 K603Q): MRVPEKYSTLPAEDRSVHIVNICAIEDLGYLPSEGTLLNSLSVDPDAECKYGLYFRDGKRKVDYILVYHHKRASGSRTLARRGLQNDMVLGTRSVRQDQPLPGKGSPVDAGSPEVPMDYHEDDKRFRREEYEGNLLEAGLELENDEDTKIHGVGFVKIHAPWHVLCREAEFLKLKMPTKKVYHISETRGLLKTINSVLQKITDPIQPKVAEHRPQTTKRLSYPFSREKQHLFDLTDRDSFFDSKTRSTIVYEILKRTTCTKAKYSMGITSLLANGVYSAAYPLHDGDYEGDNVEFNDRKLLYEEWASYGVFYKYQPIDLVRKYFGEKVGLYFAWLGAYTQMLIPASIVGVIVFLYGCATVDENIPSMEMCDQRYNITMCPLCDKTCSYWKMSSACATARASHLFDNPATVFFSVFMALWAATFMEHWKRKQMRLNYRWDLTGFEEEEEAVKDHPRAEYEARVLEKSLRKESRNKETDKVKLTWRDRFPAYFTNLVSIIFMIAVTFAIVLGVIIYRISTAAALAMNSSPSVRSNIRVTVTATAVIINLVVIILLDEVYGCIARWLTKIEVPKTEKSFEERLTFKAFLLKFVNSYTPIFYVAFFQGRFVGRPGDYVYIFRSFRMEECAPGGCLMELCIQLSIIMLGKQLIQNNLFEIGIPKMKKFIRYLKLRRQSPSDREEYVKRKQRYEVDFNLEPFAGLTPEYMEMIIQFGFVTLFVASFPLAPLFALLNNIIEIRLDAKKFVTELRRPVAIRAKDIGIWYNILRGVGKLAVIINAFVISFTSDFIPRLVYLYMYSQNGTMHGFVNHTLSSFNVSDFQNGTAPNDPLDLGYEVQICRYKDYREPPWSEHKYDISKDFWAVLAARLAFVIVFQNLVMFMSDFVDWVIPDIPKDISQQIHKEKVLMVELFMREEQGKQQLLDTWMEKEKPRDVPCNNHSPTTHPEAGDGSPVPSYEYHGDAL
methodSummary: Inside-out patch recording of 1PBC block, mutant K603Q
Type: cell-based
condition: K603Q; V -20 mV
observedProperty: pIC50
Answers are plain numbers, as −log10 of the molar value.

What the record says about N#Cc1c(C(F)(F)F)cc(O)n2c1nc1ccccc12 : pIC50 is 3.74

====

targetOrSystem: mouse TMEM16A mutant Q637A (Mus musculus, UniProt Q8BHY3, Q637A)
Construct: expressed in transfected cells; host or cells: HEK293T
Sequence (Q8BHY3 1-960 Q637A): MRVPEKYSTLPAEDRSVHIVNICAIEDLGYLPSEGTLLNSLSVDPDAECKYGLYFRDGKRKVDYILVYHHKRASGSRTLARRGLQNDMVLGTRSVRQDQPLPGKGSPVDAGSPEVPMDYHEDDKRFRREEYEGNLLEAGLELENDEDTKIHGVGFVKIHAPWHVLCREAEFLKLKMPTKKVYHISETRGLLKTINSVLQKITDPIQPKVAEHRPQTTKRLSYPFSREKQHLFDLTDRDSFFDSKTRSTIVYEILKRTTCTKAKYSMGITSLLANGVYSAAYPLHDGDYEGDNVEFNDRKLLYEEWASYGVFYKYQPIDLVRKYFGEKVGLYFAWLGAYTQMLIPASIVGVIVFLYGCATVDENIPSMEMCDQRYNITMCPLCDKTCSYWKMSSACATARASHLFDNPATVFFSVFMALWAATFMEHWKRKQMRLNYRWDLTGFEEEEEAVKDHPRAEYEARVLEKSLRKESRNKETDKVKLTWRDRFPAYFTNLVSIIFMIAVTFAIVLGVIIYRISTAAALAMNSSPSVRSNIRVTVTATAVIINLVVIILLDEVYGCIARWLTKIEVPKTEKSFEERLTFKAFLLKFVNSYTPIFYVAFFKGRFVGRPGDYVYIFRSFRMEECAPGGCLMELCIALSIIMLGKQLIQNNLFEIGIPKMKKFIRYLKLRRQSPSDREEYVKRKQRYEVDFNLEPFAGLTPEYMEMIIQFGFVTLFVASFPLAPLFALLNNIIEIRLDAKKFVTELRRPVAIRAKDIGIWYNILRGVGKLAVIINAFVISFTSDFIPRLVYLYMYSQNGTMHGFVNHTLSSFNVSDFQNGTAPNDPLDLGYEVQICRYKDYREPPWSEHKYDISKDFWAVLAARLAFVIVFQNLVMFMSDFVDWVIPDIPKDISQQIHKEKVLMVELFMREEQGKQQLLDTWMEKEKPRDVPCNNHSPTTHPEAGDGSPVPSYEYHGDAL
methodSummary: Inside-out patch recording of 1PBC block, mutant Q637A
Assay type: cell-based
condition: -140 mV; 2 µM Ca2+
observedProperty: IC50

Value of measured IC50 for the entry N#Cc1c(C(F)(F)F)cc(O)n2c1nc1ccccc12 : 10.2 µM
